# System: SK-OV-3
# measurement_protocol: NCI tumour cell line growth inhibition, 48 h
The source made the active and inactive calls. Cut-off read from the data, not from the text of the source: active = GI50 up to about 1.1 µM and inactive = higher.
assay_endpoint: GI50

Examples from the recorded data:
>  <compound>
COc1ccc(C(c2ccc(OC)cc2)N2C(=O)CCC2C(=O)O)cc1 (configuration not stated)

>  <tested_system>
SK-OV-3

>  <GI50>
> 100 µM (inactive)

$$$$
>  <compound>
O=P1(C(O)/C=C/c2ccccc2)N(Cc2ccccc2)[C@H](c2ccccc2)[C@@H](c2ccccc2)N1Cc1ccccc1 (some centres not stated)

>  <tested_system>
SK-OV-3

>  <GI50>
22.5 µM (inactive)

$$$$
>  <compound>
S=C1SCN(C2CCCCCCCCCCC2)CN1C1CCCCCCCCCCC1

>  <tested_system>
SK-OV-3

>  <GI50>
> 100 µM (inactive)

$$$$
>  <compound>
C[C@@H]1S[C@H](c2ccccc2F)N2Cc3ccccc3N=C12

>  <tested_system>
SK-OV-3

>  <GI50>
25.1 µM (inactive)

$$$$

Please give GI50, item by item, for the list that follows.
1. Oc1cc(Cc2ccccc2)c(Cc2ccccc2)cc1O
2. CCOC1CC2OC(=O)C1C=C2C(=O)OC (configuration not stated)
3. Cc1nc(-n2nc(-c3ccccc3)cc2-c2ccccc2)sc1C(=O)/C=C/c1ccccc1
4. O=C1C(Cl)=C(Cl)C(=O)N1c1ccccc1Cl
5. CN1CCc2c1nc(-c1ccc([N+](=O)[O-])cc1)c1c2N(C)CC1
6. O=P1(c2ccccc2)c2ccccc2CCc2ccccc21

Reply |
> 10 µM (inactive)
> 100 µM (inactive)
> 100 µM (inactive)
> 100 µM (inactive)
> 100 µM (inactive)
58.2 µM (inactive)

Would you mind listing GI50 for each of the following compounds?
1. COc1cccc(O)c1-c1cc(=O)c2c(O)c(OC)c(OC)c(OC)c2o1
2. COc1ccccc1C#C/C=C\C#Cc1ccccc1C#N
3. O=C(O)c1ccccc1/C=N\N(CCO)C1=NCCN1
4. COc1cc(S(=O)(=O)Nc2ccc(-c3csc(/N=C\c4ccccc4O)n3)cc2)ccc1Cl
5. CCCC(=O)OC1CC(n2cc(F)c(=O)[nH]c2=O)OC1CO (configuration not stated)

Reply |
["28.4 µM (inactive)", "39.8 µM (inactive)", "> 100 µM (inactive)", "> 100 µM (inactive)", "4.08 µM (inactive)"]

I have 6 compounds here; please give me GI50 for each one.
1. CC(=O)OC1C=C(C=O)C(O)(C=O)C2(C)CCCC(C)(C)C12 (configuration not stated)
2. O=C(CSc1nc2ccc(I)cc2c(=O)n1Cc1ccccc1)Nc1ccc(Br)cc1
3. CC1(C)Cc2cc(C(=O)O)c3c(c2C1=O)COCC3
4. COC(=O)c1csc(-c2nc(CCNC(=O)OC(C)(C)C)sc2Br)n1
5. CO/N=C(\C)c1cccc(Nc2c3ccccc3nc3occc23)c1
6. CN1CCCNCCN(CCc2ccccn2)CCCN(C)CC1

Reply |
["4.34 µM (inactive)", "> 100 µM (inactive)", "> 100 µM (inactive)", "> 100 µM (inactive)", "14.4 µM (inactive)", "> 100 µM (inactive)"]

Ask | Name the reported GI50 value associated with the compound O=C(Nc1ccc([N+](=O)[O-])cc1)C1C(=O)C(=O)N(c2ccc([N+](=O)[O-])cc2)C1=O (configuration not stated)
Reply | > 100 µM (inactive)
